System: Haemophilus influenzae
Experiment: Antibacterial activity against Haemophilus influenzae ATCC 49247 after 18 hrs by NCCLS agar dilution method
Type: functional
Conditions: ATCC 49247, 18 h
# reported MIC; entries follow
Give just the numeric value; µg/mL need not be written.

Give the reported MIC for `O=C(NCC(=O)N1CCN(c2ccc(N3C[C@H](Cn4ccnn4)OC3=O)cc2F)CC1)c1ccc([N+](=O)[O-])o1` (system: Haemophilus influenzae).
8

Lab request: please report MIC under test system Haemophilus influenzae for `CCOC(=O)CC(=O)NCC(=O)N1CCN(c2ccc(N3C[C@H](Cn4ccnn4)OC3=O)cc2F)CC1`
64

Form entry - test system: Haemophilus influenzae; read-out: MIC; compound: `Cc1cn(C[C@H]2CN(c3ccc(N4CCN(C(=O)CNC(=O)c5ccccc5)CC4)c(F)c3)C(=O)O2)nn1`
32

Find MIC (Haemophilus influenzae) for the entry `O=C(NCC(=O)N1CCN(c2ccc(N3C[C@H](Cn4ccnn4)OC3=O)cc2F)CC1)c1cccnc1`
8

Haemophilus influenzae / MIC / `CC(=O)NCC(=O)N1CCN(c2ccc(N3C[C@H](Cn4ccnn4)OC3=O)cc2F)CC1` : value?
64

What reported MIC corresponds to `O=C(NCC(=O)N1CCN(c2ccc(N3C[C@H](Cn4ccnn4)OC3=O)cc2F)CC1)c1cccs1` on Haemophilus influenzae?
16

Kindly state the measured MIC obtained for `Cc1cn(C[C@H]2CN(c3ccc(N4CCN(C(=O)CNC(=O)c5ccco5)CC4)c(F)c3)C(=O)O2)nn1` with Haemophilus influenzae.
4

====

Test system: Haemophilus influenzae
Assay: Antibacterial activity against Haemophilus influenzae ATCC 49247 after 18 hrs by NCCLS agar dilution method
Assay type: functional
Details: ATCC 49247, 18 h
MEASUREMENT NAME: MIC (µg/mL)
Kindly answer with a numeric value in µg/mL, unit omitted.

Worked set:
- COMPOUND: "CC(=O)NCC(=O)N1CCN(c2ccc(N3C[C@H](Cn4cc(C)nn4)OC3=O)cc2F)CC1"
  OBSERVED: 32
- COMPOUND: "Cc1cn(C[C@H]2CN(c3ccc(N4CCN(C(=O)CNC(=O)C5CCCO5)CC4)c(F)c3)C(=O)O2)nn1 (stereo not given in full)"
  OBSERVED: 32
- COMPOUND: "Cc1cn(C[C@H]2CN(c3ccc(N4CCN(C(=O)CNC(=O)c5cccs5)CC4)c(F)c3)C(=O)O2)nn1"
  OBSERVED: 16
- COMPOUND: "O=C(NCC(=O)N1CCN(c2ccc(N3C[C@H](Cn4ccnn4)OC3=O)cc2F)CC1)c1cc([N+](=O)[O-])cc([N+](=O)[O-])c1"
  OBSERVED: 16
- COMPOUND: "O=C(NCC(=O)N1CCN(c2ccc(N3C[C@H](Cn4ccnn4)OC3=O)cc2F)CC1)C1CCCO1 (stereo not given in full)"
  OBSERVED: 32

Consider the compound shown here: `Cc1cn(C[C@H]2CN(c3ccc(N4CCN(C(=O)CNC(=O)c5cccnc5)CC4)c(F)c3)C(=O)O2)nn1` What is its recorded MIC?
8

Which MIC reading was recorded for the compound `CC(=O)NC[C@H]1CN(c2ccc(N3CCOCC3)c(F)c2)C(=O)O1` ?
8

Sample `O=C(NCC(=O)N1CCN(c2ccc(N3C[C@H](Cn4ccnn4)OC3=O)cc2F)CC1)c1ccco1` — what was its MIC?
16

====

System: Staphylococcus aureus
Experiment: Antibacterial activity against methicillin-resistant Staphylococcus aureus after 18 hrs by NCCLS agar dilution method
Type: functional
MEASUREMENT NAME: MIC (µg/mL)
Please state the figure in µg/mL; there is no need to write the unit.

Sample answers from the record:
- SMILES DATA: "Cc1cn(C[C@H]2CN(c3ccc(N4CCN(C(=O)CNS(=O)(=O)c5cccs5)CC4)c(F)c3)C(=O)O2)nn1"
  SYSTEM: "Staphylococcus aureus"
  MIC (µg/mL): 8
- SMILES DATA: "CCOC(=O)CC(=O)NCC(=O)N1CCN(c2ccc(N3C[C@H](Cn4cc(C)nn4)OC3=O)cc2F)CC1"
  SYSTEM: "Staphylococcus aureus"
  MIC (µg/mL): 4
- SMILES DATA: "CC(=O)NC[C@H]1CN(c2ccc(N3CCOCC3)c(F)c2)C(=O)O1"
  SYSTEM: "Staphylococcus aureus"
  MIC (µg/mL): 0.5

Given the entry `Cc1cn(C[C@H]2CN(c3ccc(N4CCN(C(=O)CNC(=O)c5ccco5)CC4)c(F)c3)C(=O)O2)nn1` , what MIC was observed with Staphylococcus aureus?
2

====

Tested on: Staphylococcus aureus
Experiment: Antibacterial activity against methicillin-resistant Staphylococcus aureus after 18 hrs by NCCLS agar dilution method
Assay type: functional
// NB: equality with 1 µg/mL counts as Not met; only MIC strictly below is Met

- COMPOUND: "O=C(CNS(=O)(=O)c1cccs1)N1CCN(c2ccc(N3C[C@H](Cn4ccnn4)OC3=O)cc2F)CC1"
  CATEGORY: "Not met"
- COMPOUND: "CC(=O)NCC(=O)N1CCN(c2ccc(N3C[C@H](Cn4ccnn4)OC3=O)cc2F)CC1"
  CATEGORY: "Not met"
- COMPOUND: "O=C(NCC(=O)N1CCN(c2ccc(N3C[C@H](Cn4ccnn4)OC3=O)cc2F)CC1)c1cccs1"
  CATEGORY: "Met"
- COMPOUND: "CCOC(=O)CC(=O)NCC(=O)N1CCN(c2ccc(N3C[C@H](Cn4ccnn4)OC3=O)cc2F)CC1"
  CATEGORY: "Not met"
- COMPOUND: "CC(=O)NCC(=O)N1CCN(c2ccc(N3C[C@H](Cn4cc(C)nn4)OC3=O)cc2F)CC1"
  CATEGORY: "Not met"

Dear colleague, could you confirm whether MIC of `CC(C)(C)OC(=O)NCC(=O)N1CCN(c2ccc(N3C[C@H](Cn4ccnn4)OC3=O)cc2F)CC1` falls below 1 µg/mL? Thanks.
Not met

Could you please tell me whether MIC recorded for `Cc1cn(C[C@H]2CN(c3ccc(N4CCN(C(=O)CNC(=O)C(F)(F)F)CC4)c(F)c3)C(=O)O2)nn1` is less than 1 µg/mL?
Not met

Is the reported MIC for `Cc1cn(C[C@H]2CN(c3ccc(N4CCN(C(=O)CNC(=O)c5ccc([N+](=O)[O-])o5)CC4)c(F)c3)C(=O)O2)nn1` strictly below 1 µg/mL?
Met

Please check: MIC for `O=C(NCC(=O)N1CCN(c2ccc(N3C[C@H](Cn4ccnn4)OC3=O)cc2F)CC1)c1cc([N+](=O)[O-])cc([N+](=O)[O-])c1` , strictly under 1 µg/mL or not?
Met

Is it true that MIC reported for O=C(NCC(=O)N1CCN(c2ccc(N3C[C@H](Cn4ccnn4)OC3=O)cc2F)CC1)C1CCCO1 (stereo partly drawn) is less than 1 µg/mL?
Not met

====

System: Haemophilus influenzae
Assay: Antibacterial activity against Haemophilus influenzae ATCC 49247 after 18 hrs by NCCLS agar dilution method
Type: functional
Details: ATCC 49247, 18 h
Reported MIC values are given for each entry in this list.

I'm curious: which MIC was measured for `CCOC(=O)CC(=O)NCC(=O)N1CCN(c2ccc(N3C[C@H](Cn4cc(C)nn4)OC3=O)cc2F)CC1` tested on Haemophilus influenzae?
> 64 µg/mL

Give MIC (Haemophilus influenzae) of the following molecule: `Cc1cn(C[C@H]2CN(c3ccc(N4CCN(C(=O)CNC(=O)OC(C)(C)C)CC4)c(F)c3)C(=O)O2)nn1`
≥ 64 µg/mL

Request: MIC, test system Haemophilus influenzae, entry `Cc1cn(C[C@H]2CN(c3ccc(N4CCN(C(=O)CNC(=O)c5cc([N+](=O)[O-])cc([N+](=O)[O-])c5)CC4)c(F)c3)C(=O)O2)nn1`
> 16 µg/mL

====

Tested on: Staphylococcus
Assay: Antibacterial activity against methicillin-susceptible coagulase-negative Staphylococcus after 18 hrs by NCCLS agar dilution method
Format: functional
MIC for assorted compounds
Enter your answer as a number in µg/mL; do not include the unit.

- SMILES DATA: "O=C(NCC(=O)N1CCN(c2ccc(N3C[C@H](Cn4ccnn4)OC3=O)cc2F)CC1)c1cccnc1"
  SYSTEM: "Staphylococcus"
  MIC, µg/mL: 1
- SMILES DATA: "Cc1cn(C[C@H]2CN(c3ccc(N4CCN(C(=O)CNC(=O)C(Cl)Cl)CC4)c(F)c3)C(=O)O2)nn1"
  SYSTEM: "Staphylococcus"
  MIC, µg/mL: 4
- SMILES DATA: "O=C(NCC(=O)N1CCN(c2ccc(N3C[C@H](Cn4ccnn4)OC3=O)cc2F)CC1)c1cc([N+](=O)[O-])cc([N+](=O)[O-])c1"
  SYSTEM: "Staphylococcus"
  MIC, µg/mL: 0.5
- SMILES DATA: "Cc1cn(C[C@H]2CN(c3ccc(N4CCN(C(=O)CNC(=O)c5cccs5)CC4)c(F)c3)C(=O)O2)nn1"
  SYSTEM: "Staphylococcus"
  MIC, µg/mL: 1

Here is the next item to consider.
Query: MIC; subject: `Cc1cn(C[C@H]2CN(c3ccc(N4CCN(C(=O)CNS(=O)(=O)c5cccs5)CC4)c(F)c3)C(=O)O2)nn1`
8
